- method.summary: NCI Yeast Anticancer Drug Screen. Data for the bub3 strain (AID 167)
- applied.conditions: S. cerevisiae bub3 mutant strain, at 50.0 µM (retest, dose inferred, filed as 5.0), active compounds read high
- Description: Growth inhibition of yeast strains with defined genetic alterations is measured as a screen for potential anti-cancer activity. Selected strains with alterations in DNA damage repair or cell cycle control were exposed to compounds and growth inhibition was measured relative to vehicle treated controls. The strain used in this assay is bub3
This is part of a sample that, as a whole, favours compounds with a hit. Of some 79,000 tested, about 15% had one in any assay.
Think of 70% as a floor: if growth inhibition stands on it or above, it is Y; beneath it, N.

Here are 5 molecules together with their reported answers.
molecule	discrete.label
O=C(Cn1cnc2ccc([N+](=O)[O-])cc21)N1CCN(c2ccccc2)CC1	N
CCC(CC)COC(=O)C(C)=O	N
CCCCCCCCCCCCCCCCCCn1[se]c2ccccc2c1=O	N
CSC(=S)NN=C1CCCCC1	Y
CNC(=N)c1ccc(NC(=N)c2ccc(NC(=O)c3ccc(C(=O)Nc4ccc(C(=N)Nc5ccc(C(=N)NC)cc5)cc4)cc3)cc2)cc1	Y

Problem: Answer whether growth inhibition of O=C(Cc1ccc2c(c1)OCO2)c1ccc(O)cc1O is greater than or equal to 70%.
Result: Y

Problem: Next: CC(=O)Nc1ccc2c(c1)C(=O)c1cccc(F)c1-2
Result: N

Problem: Next: N#CC(C#N)=C1CCC(CC2CCCCC2)CC1 (stereo unspecified)
Result: Y

Problem: Next: CCCCCCCCCCCC1C(C#N)C(=O)NC(=O)C1C#N (stereo unspecified)
Result: Y

Problem: Next: O=C(O/N=C1/CCCC/C1=C\c1ccccc1)c1ccccc1
Result: Y

Problem: Next: N#Cc1c(SCc2ccc(Cl)cc2)nsc1Nc1ccc(Cl)cc1
Result: Y

* * *

- method.summary: NCI Yeast Anticancer Drug Screen. Data for the bub3 strain (AID 167)
- applied.conditions: S. cerevisiae bub3 mutant strain, at 50.0 µM (retest, dose inferred, filed as 5.0), active compounds read high
Compounds without any hit were thinned out: in the full panel of roughly 79,000, 15% have a hit.
recorded.metric: growth inhibition (%)
The figure you give is taken to be in %; do not add the unit.

compound	reported.measurement
O=C(Cl)c1cc(-c2ccc(Cl)cc2)nc2c(Cl)cccc12	99
O=C(NCCN1CCN2Cc3[nH]c4ccccc4c3CC2C1)c1ccc(Cl)cc1 (stereo not given)	53
CCOC(=O)[C@]12CCC[C@@]1(O)NC(=O)c1cnccc12	9
Oc1cc2ccccc2c2ccccc12	96
N=C(/C(=C/c1ccccc1)c1ccccc1)c1ccccc1	98
CCCN(CCC)C(=S)N/N=C(/C)c1ccccc1O	98
C=C1CC(C)(COc2ccc3c(C)c(C)c(=O)oc3c2C)OC1=O (stereo not given)	86
CC[n+]1c(/C=C/c2cc(C(=O)OC)n3c2sc2ccccc23)sc2ccccc21	99
COc1ccc(C2C3=C(CCCC3=O)Oc3cc4c(cc32)OCO4)cc1 (stereo not given)	79
CCCN=Cc1cnc(C#N)c(N)n1	-1

Problem: Query: growth inhibition; subject: O=C(N=c1sc2ccccc2s1)N=c1sc2ccccc2s1
Result: 7

Problem: Next: COc1c2occc2c(OC)c2c(C)c(C(=O)OCCN3CCOCC3)oc12
Result: 56

Problem: Next: CCOC(=O)/C=C/c1ccc([N+](=O)[O-])o1
Result: 82

Problem: Next: C#CCNCc1ccccc1
Result: 78

Problem: Next: N[C@H](C(=O)O)[C@@H]1CC(Cl)=NO1
Result: 97

Problem: Next: NC(=O)NN=C1CSSC1
Result: 2

Problem: Next: CCOC(=O)/C(=C\c1ccc(-c2ccccc2)cc1)C(C)=O
Result: 96

Problem: Next: O=[N+]([O-])c1ccc(-n2ncc3cccnc32)c([N+](=O)[O-])c1
Result: 99

Problem: Next: CN(C)C(=S)/N=c1\ss/c(=N/C(=S)N(C)C)n1-c1ccc([N+](=O)[O-])cc1
Result: 4

Problem: Next: NNCc1cc(Cl)c2cccnc2c1O
Result: 98

Problem: Next: Oc1ccc2ccc3ccccc3c2c1
Result: 98

Problem: Next: CCCCCCC(O)C(CO)CCCCC (stereo not given)
Result: 97

Problem: Next: NC1=CC(=O)c2ccccc2C1=O
Result: 93

Problem: Next: CC(=O)N=C1N(/C=C2\C(=O)Oc3ccccc3C2=O)C(=O)/C(=C/c2ccco2)N1C
Result: 76

Problem: Next: O=C(O/N=C1/CCC/C1=C\c1ccccc1)c1ccccc1
Result: 99

* * *

- method.summary: NCI Yeast Anticancer Drug Screen. Data for the mlh1 rad18 strain (AID 175)
- applied.conditions: S. cerevisiae mlh1 rad18 strain growth inhibition; at 5.0 µM (retest, dose inferred, filed as 0.5)
Compounds without any hit were thinned out: in the full panel of roughly 79,000, 15% have a hit. Calls of active or inactive are those of the source. No stated cut-off is given here; in the data, active means growth inhibition above about 70%; inactive means the rest.
Response enum: active, inactive

Here are 5 compounds together with their reported answers.
compound	discrete.label
O=Nc1ccccc1N=O	active
C[Si](C)(c1ccccc1)C1CC(=O)CC(=O)C1	inactive
NC(=Nc1cc2ccccc2c2ccccc12)/N=C(/N)Nc1cc2ccccc2c2ccccc12	active
CN1C(=O)C2N(C(=O)C1(C)S)c1ccccc1C2(C)C (centres undefined)	inactive
Cc1ccc(S(=O)(=O)Nc2ccc3c(c2)Cc2cc([N+](=O)[O-])ccc2-3)cc1	inactive

Problem: Called result for CC(SCc1ccccc1)C(=O)O (centres undefined)
Result: inactive

Problem: Next: C=Cc1ccc(B2NCCO2)cc1
Result: inactive

Problem: Next: COc1cc2c(cc1O)C1Cc3ccc(OC)c(O)c3C(C2)N1C (centres undefined)
Result: inactive

Problem: Next: NC(=S)N/N=C/c1ccc(Cl)s1
Result: inactive

Problem: Next: Cc1cc(C(C)(CC(C)C)c2ccc(O)c(C)c2)ccc1O
Result: active

* * *

- method.summary: NCI Yeast Anticancer Drug Screen. Data for the bub3 strain (AID 167)
- applied.conditions: S. cerevisiae bub3 mutant strain, at 50.0 µM, active compounds read high
Compounds without any hit were thinned out: in the full panel of roughly 79,000, 15% have a hit.
recorded.metric: growth inhibition (%)
The figure you give is taken to be in %; do not add the unit.

Observe how each entry below is paired with its result.
compound	recorded.metric	reported.measurement
Cc1c2c(c(C)c3ccncc13)S(=O)(=O)c1ccccc1-2	growth inhibition	55
CCC(CC)(C(=O)Nc1ccc2c(c1)c(=O)c1ccccc1n2C)C(=O)Nc1ccc2c(c1)c(=O)c1ccccc1n2C	growth inhibition	61.2
Clc1ccc(CN2CCCN(Cc3ccc(Cl)cc3)C2C2CCC=CO2)cc1 (configuration not stated)	growth inhibition	56.3
CC[n+]1c(/C=C/c2cc(C(=O)OC)n3c2sc2ccccc23)sc2ccccc21	growth inhibition	98.6
CCOC(=O)c1[nH]n(-c2ccccc2)c(=O)c1/C=N/C(=S)Nc1ccccc1OC	growth inhibition	10.1

Problem: Query: growth inhibition; subject: O=C(Nc1ccc(S(=O)(=O)NC2CCCCC2)cc1)OC1CCCCC1
Result: 92.3

Problem: Next: ON=C1c2ccccc2-c2ccccc21
Result: 30.9

Problem: Next: CC(CCNCCC#N)CC(C)(C)C (configuration not stated)
Result: 63

Problem: Next: Cn1cc(/C=C/[N+](=O)[O-])c2ccc(OCc3ccccc3)cc21
Result: 76.3

Problem: Next: COC(=O)/C=C1/Nc2ccc(Cl)cc2C(=O)NC1=O
Result: 30.8

Problem: Next: Nc1nc(N)c2nc(CNc3ccc(C(=O)NC(CCC(=O)O)C(=O)O)cc3)cnc2n1 (configuration not stated)
Result: 74.8

Problem: Next: CC1C=C(COC(=O)Nc2ccccc2)ON1c1ccccc1 (configuration not stated)
Result: 98.5

Problem: Next: COCC1C(=O)c2cc3c(cc2C12C=CC1(C=C2)OCCO1)OCO3 (configuration not stated)
Result: 91.1

Problem: Next: O=C(Cl)c1cc(-c2ccc(Cl)cc2)nc2c(Cl)cccc12
Result: 74.2

Problem: Next: COc1cc(C2c3cc4c(cc3[C@@H](Nc3ccc5c(c3)OCCO5)C3COC(=O)[C@H]23)OCO4)cc(OC)c1O (some centres not stated)
Result: 87.2

Problem: Next: CC(=O)c1c2c(cc3c1CC1(C3)Cc3ccc4c(c3C1=O)CCC4)CCC2 (configuration not stated)
Result: 55.2

Problem: Next: CNC(=O)c1ccc(OC)cc1C1(O)c2ccccc2CCc2ccccc21
Result: 58.8

Problem: Next: C[C@]12CCC3[C@@H](CC[C@@H]4c5nonc5CC[C@]34C)C1CCC(=O)N2 (some centres not stated)
Result: 31.9

Problem: Next: Cc1nc2sc3c(c2c2nnnn12)CCCC3
Result: 27.6

Problem: Next: CC1CN(CC(O)c2ccc(Br)cc2)CC(C)O1 (configuration not stated)
Result: 54.6

Problem: Next: CCCCN(CCCC)Cc1ccc(NC(C(=O)c2ccccc2)c2ccccc2)cc1 (configuration not stated)
Result: 90.5

Problem: Next: O=C(N/N=C/c1ccccc1)c1ccc([N+](=O)[O-])cc1
Result: 14.9

src = PubChem BioAssay (NCI)
